Quick reference for relative binding ratio among some binders
Target: T1, HLA-B*0702 (human)
T1 construct: also called B7 supertype prototype molecule
Assay: inhibition of 125I standard peptide binding to purified HLA

>>> print(df.to_string())
                                     binder                             result
0  MPNPEGRYTF (also called Her2/neu.282) [HER2/neu peptide, position 282, 10 amino acids]   0.0001 ratio to standard peptide
1  SPLTSIISAVV (also called Her2/neu.649) [HER2/neu peptide, position 649, 11 amino acids]    0.025 ratio to standard peptide
2  SPAFDNLY (also called Her2/neu.1214) [HER2/neu peptide, position 1214, 8 amino acids]  -0.0002 ratio to standard peptide
3  SPETHLDML (also called Her2/neu.38) [HER2/neu peptide, position 38, 9 amino acids]   0.0005 ratio to standard peptide
4  SPKANKEIL (also called Her2/neu.760) [HER2/neu peptide, position 760, 9 amino acids]     0.12 ratio to standard peptide

Read the entry QPEQLQVFETL (also called Her2/neu.393) [HER2/neu peptide, position 393, 11 amino acids] and write its reported relative binding ratio.
-0.0002 ratio to standard peptide

Supply reported relative binding ratio belonging to this binder: SPGGLREL (also called Her2/neu.133) [HER2/neu peptide, position 133, 8 amino acids]
0.055 ratio to standard peptide

Give relative binding ratio for the following binder: NPEGRYTFGA (also called Her2/neu.284) [HER2/neu peptide, position 284, 10 amino acids]
0.0001 ratio to standard peptide
